pIC50 by entry:
Tested on: A549
TEST: Growth inhibition of human A549 cells measured every 2 hrs over 6 days by live cell imaging based method
Assay type: functional
Kindly note that pIC50 refers to -log10 of the concentration in mol/L and answer with the value alone.

{"INPUT_SMILES": "CC1=C(O)C(=O)C=C2C1=CC=C1[C@@]2(C)CC[C@@]2(C)[C@@H]3C[C@](C)(C(=O)O)CC[C@]3(C)CC[C@]12C", "pIC50": 6.16}

// next item, pIC50 requested
I am curious: what pIC50 value has been reported for C[n+]1cc2c3c(ccc2c2ccc4cc5c(cc4c21)OCO5)OCO3 ? 6.21

---

pIC50 by entry:
TEST_SYSTEM: Regulator of G-protein signaling 17 (Homo sapiens, UniProt Q9UGC6)
Sequence (Q9UGC6 whole entry): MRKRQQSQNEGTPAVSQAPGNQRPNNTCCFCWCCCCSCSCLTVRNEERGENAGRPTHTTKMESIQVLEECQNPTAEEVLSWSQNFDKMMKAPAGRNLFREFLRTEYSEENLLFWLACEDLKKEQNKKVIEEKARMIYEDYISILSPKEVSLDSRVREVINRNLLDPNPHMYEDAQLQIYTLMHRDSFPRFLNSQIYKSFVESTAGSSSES
TEST: Inhibition of wild type GST-tagged RGS17 (unknown origin) interaction with biotinylated Galphao after 30 mins in presence of AMF and GDP by AlphaScreen assay
Kindly note that pIC50 refers to -log10 of the concentration in mol/L and answer with the value alone.

Some solved entries appear below for comparison.
{"INPUT_SMILES": "O=c1c(-c2cc(O)c(O)c(O)c2)coc2cc(O)c(O)c(O)c12", "RECORDED_VALUE": 4.33}
{"INPUT_SMILES": "C[n+]1cc2c3c(ccc2c2ccc4cc5c(cc4c21)OCO5)OCO3", "RECORDED_VALUE": 4.14}

// next item, pIC50 requested
Lab note: need pIC50 with Regulator of G-protein signaling 17 (Homo sapiens, UniProt Q9UGC6) for entry CC1=C(O)C(=O)C=C2C1=CC=C1[C@@]2(C)CC[C@@]2(C)[C@@H]3C[C@](C)(C(=O)O)CC[C@]3(C)CC[C@]12C , please look it up. 4.98

The values you see were collected from ChEMBL document CHEMBL4190223.
